- TARGET ENTITY: Endoribonuclease toxin MazF (Escherichia coli K-12, UniProt P0AE70)
- Sequence (P0AE70 whole entry): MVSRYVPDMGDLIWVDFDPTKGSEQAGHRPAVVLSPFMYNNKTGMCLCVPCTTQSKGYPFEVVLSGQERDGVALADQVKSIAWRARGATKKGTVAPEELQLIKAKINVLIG
- ASSAY METHOD TEXT: fluorescent RNA oligo signal without MazF, dose response, counter-screen for MazEF activator project, biochemical, fluorescence, single-stranded RNase substrate (AID 588502)
- Format: functional
The source made the active and inactive calls.
Below is a list of entries, each paired with its recorded EC50 value.

Examples with their reported EC50 follow.
CCOc1cccc(C2C(C(=O)c3ccc(C)o3)=C(O)C(=O)N2c2nccs2)c1 (stereo not given): > 99 µM (inactive)
O=C(Nc1ccc(Cl)cc1Cl)NC1CCN(S(=O)(=O)c2ccc(F)cc2)CC1: > 99 µM (inactive)
CCCCOc1ccc(OCCCC)c2c1NC1(N2)C(=O)N(C(C)=O)c2ccccc21: > 99 µM (inactive)

Q: Any idea what its EC50 is? The compound is CCCCNC(=O)/C(C#N)=c1\s/c(=C\c2ccccc2OC(F)F)c(=O)n1CCCOC
Result: 88.5 µM (inactive)

Q: Thanks! And CN(C)c1ccc(/C=N/NC(=O)c2cnc3ccccc3c2)cc1 ?
Result: 26.4 µM (inactive)

====

- TARGET ENTITY: Oxysterols receptor LXR-beta (Homo sapiens, UniProt P55055);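 note: HEK293 cells with Gal4-LXR fusion and GAL4-driven luciferase reporter; potency for activation of Gal4-LXR reporter so compounds are agonists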;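 note: agonist activity at LXR measured by a cell-based luminescence readout across a dose range, run as a counterscreen for daf-12 agonists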
- Sequence (P55055 whole entry, the tested form may be a part): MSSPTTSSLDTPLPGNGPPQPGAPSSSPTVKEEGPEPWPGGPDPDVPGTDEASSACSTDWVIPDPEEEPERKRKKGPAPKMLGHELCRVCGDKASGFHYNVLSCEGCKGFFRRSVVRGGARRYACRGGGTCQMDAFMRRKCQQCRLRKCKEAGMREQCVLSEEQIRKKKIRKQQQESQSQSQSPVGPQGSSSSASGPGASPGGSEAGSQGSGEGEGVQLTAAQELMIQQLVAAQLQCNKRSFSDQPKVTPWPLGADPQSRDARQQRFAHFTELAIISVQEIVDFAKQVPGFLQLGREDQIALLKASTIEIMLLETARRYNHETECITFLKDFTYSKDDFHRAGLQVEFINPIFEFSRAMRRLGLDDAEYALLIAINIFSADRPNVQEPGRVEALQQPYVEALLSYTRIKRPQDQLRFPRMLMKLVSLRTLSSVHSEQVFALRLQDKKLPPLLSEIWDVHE
- Format: functional, cell-based
Activity calls are given as the source filed them.
Below is a list of entries, each paired with its recorded EC50 value.

CCc1cc(C(=O)Nc2ncccc2O)sc1C: > 67.5 µM (inactive)
COc1ccccc1/C=N\N=C(\N)c1ccccn1: > 67.6 µM (inactive)
N#C/C(=N\Nc1ccc(Cl)cc1)C(=N)N1CCCCCC1: > 67.5 µM (inactive)

Q: Any idea what its EC50 is? The molecule is FC(F)(F)c1cc(Cl)c2nc(-c3ccccc3)cn2c1
Result: > 67.5 µM (inactive)

====

AC50 values recorded for Cytochrome P450 2D6 (Homo sapiens)

Examples with their reported AC50 follow.
Oc1ccc2ccccc2c1/C=N\Cc1c(O)ccc2ccccc12: 3.98 µM (inconclusive)
Cc1ccc2[nH]c(/C(C#N)=C\c3ccc(OC(=O)c4cccs4)cc3)nc2c1: 3.55 µM (inconclusive)
c1ccc2c(CC3NCCN3)cccc2c1: 3.98 µM (inconclusive)
O=C(c1ccc(F)cc1)C1CCN(C(S)=Nc2ccccc2)CC1: 14.1 µM (inconclusive)

Q: Any idea what its AC50 is? The compound is CCOC(=O)C1C(=O)NC(C)C1c1ccccc1 (stereo unspecified)
Result: 0.0501 µM (inconclusive)

Q: Thanks! And CCn1c(C)c(/C=N/Nc2nc3ccccc3s2)c2ccccc21 ?
Result: 14.1 µM (inconclusive)

Q: Thanks! And CCNc1ccc(Br)cc(C(=O)/C=C/c2ccc3c(c2)OCO3)c1=O ?
Result: 8.91 µM (inconclusive)

Q: Thanks! And CCNC(=O)NC(=O)CSc1nc2ccccc2n1CC(C)C ?
Result: 14.1 µM (inconclusive)

Q: Thanks! And CCCc1cc2c(n1Cc1cc(F)cc(F)c1)C(C)C1CN(C(=O)c3ccccc3)C(C)(C(=O)OC)C21 (stereo unspecified) ?
Result: 25.1 µM (inconclusive)

Q: Thanks! And Cc1nc2c(n1C1CCCCC1)C(=O)c1ccccc1C2=O ?
Result: 22.4 µM (inconclusive)

Q: Thanks! And C=CCn1c(SCC)nc2sc3c(c2c1=O)CCc1ccccc1-3 ?
Result: 11.2 µM (inconclusive)
